system: 379773-124-R-J2-PDC complex spheroids, viability % test/control; experiment: Anticancer human tumor 379773-124-R-J2-PDC patient-derived endometrial carcinoma cell line growth inhibition [CLK]; conditions: second compound 0.0316 µM; first compound 1 µM; stronger effect = lower value
Listing: viability, T/C of selected molecules
observable: viability, T/C (%)

INSERT INTO assay_data (molecule, numericresult) VALUES
  ('C=C(F)C(=O)N1CCN(c2nc(OCC3CCCN3C)nc3c2CCN(c2cccc4cccc(Cl)c24)C3)CC1CC#N (stereo not given) + CNC(=O)c1ccc(Nc2nc(OC3CCCC3)c3c(-c4ccc5nc(C)oc5c4)c[nH]c3n2)c(OC)c1', 78),
  ('C#Cc1c(F)ccc2cc(O)cc(-c3ncc4c(N5CC6CCC(C5)N6)nc(OCC56CCCN5CC(F)C6)nc4c3F)c12 (stereo not given) + CN1CCN(c2cc(C(=O)Nc3cc4cc(-c5cnn(C)c5)ccc4cn3)ccn2)CC1', 87.5),
  ('CC(CO)NC(=O)c1cc(-c2ccc(Cl)cc2)nn(-c2cnn(C)c2)c1=O (stereo not given) + CN1CCN(c2cc(C(=O)Nc3cc4cc(-c5cnn(C)c5)ccc4cn3)ccn2)CC1', 102),
  ('O=c1[nH]cc(F)c(=O)[nH]1 + CN1CCN(c2cc(C(=O)Nc3cc4cc(-c5cnn(C)c5)ccc4cn3)ccn2)CC1', 82.3),
  ('COc1ccc([C@@H](O)c2cc(-c3ncnc4cc(N5CCOCC5)ccc34)c(F)cc2Cl)nn1 + CNC(=O)c1ccc(Nc2nc(OC3CCCC3)c3c(-c4ccc5nc(C)oc5c4)c[nH]c3n2)c(OC)c1', 60.6);

---

test system: 379773-124-R-J2-PDC complex spheroids, viability % test/control; assay: Anticancer human tumor 379773-124-R-J2-PDC cell line growth inhibition [CLK]; conditions: second compound 0.0316 µM; first compound 0.1 µM; stronger effect = lower value;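 further: compound exposure lasted seven days before the viability readout; 100% = DMSO vehicle control wells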
observable: viability, T/C (%)

INSERT INTO results (compound, numericresult) VALUES
  ('CC1(C)CCC(CN2CCN(c3ccc(C(=O)NS(=O)(=O)c4ccc(NCC5CCOCC5)c([N+](=O)[O-])c4)c(Oc4cnc5[nH]ccc5c4)c3)CC2)=C(c2ccc(Cl)cc2)C1 + CN1CCN(c2cc(C(=O)Nc3cc4cc(-c5cnn(C)c5)ccc4cn3)ccn2)CC1', 88.1),
  ('Nc1ccn(C2OC(CO)C(O)C2(F)F)c(=O)n1 (stereo not drawn) + CN1CCN(c2cc(C(=O)Nc3cc4cc(-c5cnn(C)c5)ccc4cn3)ccn2)CC1', 5.93),
  ('Cn1ncnc1[C@H]1c2n[nH]c(=O)c3cc(F)cc(c23)N[C@@H]1c1ccc(F)cc1 + CN1CCN(c2cc(C(=O)Nc3cc4cc(-c5cnn(C)c5)ccc4cn3)ccn2)CC1', 34),
  ('C=C(F)C(=O)N1CCN(c2nc(OCC3CCCN3C)nc3c2CCN(c2cccc4cccc(Cl)c24)C3)CC1CC#N (stereo not drawn) + CNC(=O)c1ccc(Nc2nc(OC3CCCC3)c3c(-c4ccc5nc(C)oc5c4)c[nH]c3n2)c(OC)c1', 63.1),
  ('C=CC(=O)N1CCN(c2nc(=O)n(-c3c(C)ccnc3C(C)C)c3nc(-c4c(O)cccc4F)c(F)cc23)C(C)C1 (stereo not drawn) + CN1CCN(c2cc(C(=O)Nc3cc4cc(-c5cnn(C)c5)ccc4cn3)ccn2)CC1', 92.5),
  ('CC1COCCN1c1cc(C2(S(C)(=N)=O)CC2)nc(-c2ccnc3[nH]ccc23)n1 (stereo not drawn) + CN1CCN(c2cc(C(=O)Nc3cc4cc(-c5cnn(C)c5)ccc4cn3)ccn2)CC1', 95.1),
  ('CCc1c2c(nc3ccc(O)cc13)-c1cc3c(c(=O)n1C2)COC(=O)[C@]3(O)CC + CN1CCN(c2cc(C(=O)Nc3cc4cc(-c5cnn(C)c5)ccc4cn3)ccn2)CC1', 2.7),
  ('COc1cccc2c1C(=O)c1c(O)c3c(c(O)c1C2=O)CC(O)(C(=O)CO)CC3OC1CC(N)C(O)C(C)O1 (stereo not drawn) + CNC(=O)c1ccc(Nc2nc(OC3CCCC3)c3c(-c4ccc5nc(C)oc5c4)c[nH]c3n2)c(OC)c1', 6.01),
  ('CC(Nc1ccc2c(c1)OCCn1cc(N3C(=O)OCC3C(F)F)nc1-2)C(N)=O (stereo not drawn) + CN1CCN(c2cc(C(=O)Nc3cc4cc(-c5cnn(C)c5)ccc4cn3)ccn2)CC1', 89.8),
  ('O=c1[nH]cc(F)c(=O)[nH]1 + CN1CCN(c2cc(C(=O)Nc3cc4cc(-c5cnn(C)c5)ccc4cn3)ccn2)CC1', 86.8),
  ('Nc1ccccc1NC(=O)c1ccc(CNC(=O)OCc2cccnc2)cc1 + CN1CCN(c2cc(C(=O)Nc3cc4cc(-c5cnn(C)c5)ccc4cn3)ccn2)CC1', 92.6),
  ('C#Cc1c(F)ccc2cc(O)cc(-c3ncc4c(N5CC6CCC(C5)N6)nc(OCC56CCCN5CC(F)C6)nc4c3F)c12 (stereo not drawn) + CN1CCN(c2cc(C(=O)Nc3cc4cc(-c5cnn(C)c5)ccc4cn3)ccn2)CC1', 91.4),
  ('O=c1[nH]cc(F)c(=O)[nH]1 + CNC(=O)c1ccc(Nc2nc(OC3CCCC3)c3c(-c4ccc5nc(C)oc5c4)c[nH]c3n2)c(OC)c1', 76.3);
